Data provenance is PubChem BioAssay (NCI).

System: UACC-62 melanoma
Experiment: NCI-60 one-dose screen, 48 h (100 = growth as untreated, 0 = no growth, -100 = all killed)
Details: 10 µM unless noted
Experimental: Growth inhibition of the UACC-62 human tumor cell line is measured as a screen for anti-cancer activity. Cells are grown in 96 well plates and exposed to the test compound for 48 hours. Compounds are tested at a single concentration, which is 10^-5 M for most compounds. The reported endpoint is percent growth (GI% or GIPRCNT), where numbers from 0 - 100% represent growth inhibition, and numbers from -100% - 0 represent cell death. For example, a value of 40 represents 60% growth inhibition. […]
The panel holds about 83,000 compounds, 20% with a hit somewhere; the sample as a whole holds those more often.
Could you please mark Satisfied for values of growth below 90% and Not satisfied for values at or above it?

Consider the worked cases shown below.
C#Cc1c(I)n(C2OC(CO[Si](C)(C)C(C)(C)C)C3OC(C)(C)OC32)c(=O)[nH]c1=O (centres undefined): Satisfied
COc1ccc2c(c1)c(-c1nc(-c3cn(C)c4ccncc34)cs1)cn2C: Not satisfied
Clc1nc(N2CCC[N+]3(CC2)CC[N+]2(CCCNCC2)CC3)nc(N2CCC[N+]3(CC2)CC[N+]2(CCCNCC2)CC3)n1 (centres undefined): Not satisfied
CC1=C2[C@@H](CC1)[C@]1(C)O[C@@](C(C)C)(C[C@H]1OC(=O)CO)[C@H]2OC(=O)CCCc1ccccc1: Satisfied

### Prompt Quick check: growth of "COc1cc(-c2ccc(-c3ccc(C(=N)N)s3)s2)cc(OC)c1OC" under 90%?
### Response Satisfied

###

Listed molecules paired with reported growth
Tested on: SNB-75 CNS
Assay: NCI-60 one-dose screen, 48 h (100 = growth as untreated, 0 = no growth, -100 = all killed)
Conditions: 10 µM unless noted
This is part of a sample that, as a whole, favours compounds with a hit. Of some 83,000 tested, about 20% had one in any assay.
Please state the figure in %; there is no need to write the unit.

Before answering, review these 5 worked examples.
CN(C)C(=O)OCc1ccc2c(Cl)cc(Cl)c(O)c2n1: 48
CN(C)CCOc1nc2c3cc([N+](=O)[O-])ccc3nn2c2ccccc12: 77.1
N=C(N)c1ccc(-c2ccc(-c3ccc(Cl)cc3Cl)s2)nc1: 92.4
Oc1c(Cl)cc(Cl)c2ccc(CN3CCNCC3)nc12: 45.9
Cc1cccc(CN(Nc2ccccc2)c2ccccc2)n1: 93.1

Now turn to the next molecule.
### Prompt Look up growth: "COc1ccc(Cn2cc(C(=O)N=Nc3c(O)[nH]c4ccc(Br)cc34)nn2)cc1"
### Response 112

###

Tested on: RXF 393 renal
Test: NCI-60 one-dose screen, 48 h (100 = growth as untreated, 0 = no growth, -100 = all killed)
Conditions: 10 µM unless noted
This is part of a sample that, as a whole, favours compounds with a hit. Of some 83,000 tested, about 20% had one in any assay.
The following compounds are shown together with reported growth values.
Field format: number, assumed %, no unit text.

Reference set, count: 8
Cc1ccc(S(=O)(=O)N(CCC(=O)O)c2ccccc2)cc1: 152
COc1ccc(-n2c(=O)n(-c3ccc(-c4nc5ccc(F)cc5s4)cc3)c(=O)c3cccnc32)cc1: 129
O=S(=O)(Nc1ccc(Br)cc1)c1ccc(-c2cnc(C3CC3)o2)cc1: 10.4
C=C1C(=O)O[C@H]2[C@H]1CC/C(CNC(=O)/C=C/c1cc(OC)c(OC)c(OC)c1)=C\CC[C@@]1(C)O[C@@H]21: -88
COc1ccc(-c2cc(-c3ccc(Nc4nc(Nc5ccc(Cl)cc5)nc(Nc5ccc(Cl)cc5)n4)cc3)no2)cc1: -8.53
CCCCC/C=C/CCC(=O)N[C@H]1[C@H](Oc2c3cc4cc2Oc2ccc(cc2Cl)[C@@H](O[C@@H]2O[C@H](CO)[C@@H](O)[C@H](O)[C@H]2NC(C)=O)[C@@H]2NC(=O)[C@H](NC(=O)[C@@H]4NC(=O)[C@H]4NC(=O)[C@@H](Cc5ccc(c(Cl)c5)O3)NC(=O)[C@@H](N)c3ccc(O)c(c3)Oc3cc(O)cc4c3)c3ccc(O)c(c3)-c3c(O[C@H]4O[C@H](CO)[C@@H](O)[C@H](O)[C@@H]4O)cc(O)cc3[C@H](C(=O)O)NC2=O)O[C@H](CO)[C@H](O)[C@@H]1O: 112
C#C[C@]1(O)CC[C@H]2[C@@H]3CC=C4c5sc(-c6ccccc6)nc5CC[C@]4(C)[C@H]3CC[C@@]21C: 32.3
c1ccc(-c2cn3nc(-c4c[nH]c5ccccc45)sc3n2)cc1: 97.4

### Prompt Item "Cc1nn(C)c2ncnc(Nc3ccccc3Br)c12" with RXF 393 renal - growth?
### Response 104

### Prompt Reported growth for RXF 393 renal, given Cc1ccc(C2(C)NC(=O)N(CC(=O)Nc3cccc(C)c3)C2=O)cc1 (configuration not stated) ?
### Response 101

### Prompt Give recorded growth with RXF 393 renal for the following compound: "CCCN1C2CCC1/C(=C\c1ccc(OC)cc1)C(=O)/C2=C/c1ccc(OC)cc1"
### Response 92.4

### Prompt Field: growth (RXF 393 renal). Entry: "COc1ccc(S(=O)(=O)N(C)c2oc(-c3ccc(Cl)cc3)nc2C#N)cc1"
### Response 80.1

### Prompt What value of growth on RXF 393 renal does "Oc1c(Cl)cc(Cl)c2ccc(CN3CCNCC3)nc12" have?
### Response 60.3

### Prompt Give growth (RXF 393 renal) of the following compound: "CC(C)n1nc(-c2ccc3oc(N)nc3c2)c2c(N)ncnc21"
### Response -43.1

### Prompt Requested read-out growth, target or system RXF 393 renal, entry "O=C(CN1C(=O)c2ccccc2S1(=O)=O)Nc1nc(-c2cc3ccccc3oc2=O)cs1"
### Response 105

### Prompt growth of "COc1cc(C(=O)/C=C/c2c(-c3cccs3)nc3sc(C)cn23)cc(OC)c1OC" on RXF 393 renal?
### Response -35.3

### Prompt What reported growth corresponds to O=CN1N=C(c2cccc(Nc3ccncc3)c2)CC1c1ccc2c(c1)OCO2 (configuration not stated) on RXF 393 renal?
### Response 100

### Prompt Entry Cc1[nH]c(C2CC(c3ccc(C(F)(F)F)c(F)c3)=NN2C)c(C)c1C(=O)NCC(F)(F)F (configuration not stated) , system RXF 393 renal: what growth was measured?
### Response 93.7

### Prompt Give the reported growth for CCCN1C(=O)N(CCC)C2C1NC(=S)N2/N=C/C=C/c1ccccc1OC (configuration not stated) (system: RXF 393 renal).
### Response -29.8

### Prompt Notebook: pull reported growth for RXF 393 renal, entry "CC(=O)OCC(=O)O[C@@H]1C[C@]2(C(C)C)O[C@@]1(C)[C@@H]1CC[C@@H](C)[C@H]1[C@@H]2OC(=O)/C=C/c1ccccc1"
### Response -2.3

### Prompt Requested read-out growth, target or system RXF 393 renal, entry "NCCNc1ccc([N+](=O)[O-])cc1"
### Response 123

### Prompt // map "C=C(C)[C@@H]1CC[C@]2(COC(=O)c3cccnc3)CC[C@]3(C)[C@H](CC[C@@H]4[C@@]5(C)CCCN(C(=O)c6cccnc6)C(C)(C)[C@@H]5CC[C@]43C)[C@@H]12" to recorded growth (system: RXF 393 renal)
### Response 56.1
